# target: PLK3 (Homo sapiens)
# measurementProtocol: PLK TR-FRET peptide assay, PLK3
# Assay type: biochemical
# experimentalContext: GST-PLK3, 15 min reaction, read-out: Plk3 IC50
pIC50: −log10 of the molar value.
measuredMetric: pIC50

The examples below pair each entry with its known result.
# compound, pIC50
records = [
    ("CC[C@@H]1C(=O)N(C)c2cnc(-n3ccnc3-c3ccc(F)cn3)nc2N1C1CCCC1 [Example 271]", "5.00 to 6.00"),
    ("CC[C@@H]1C(=O)N(C)c2cnc(-c3ccncc3NS(=O)(=O)c3ccccc3)nc2N1C(C)C [Example 120]", "< 4.30"),
    ("CC[C@@]12CCCN1c1nc(-n3ccnc3-c3cccc(-n4cncn4)c3)ncc1N(C)C2=O [Example 273]", "< 4.30"),
    ("CC[C@@H]1C(=O)N(C)c2cnc(-c3ccnc(N(C)C)c3)nc2N1C1CCCC1 [Example 21]", "4.30 to 5.00"),
    ("CC[C@@H]1C(=O)N(C)c2cnc(-n3ccnc3-c3nccs3)nc2N1C(C)C [Example 151]", "4.30 to 5.00"),
    ("[2H]C([2H])([2H])N1C(=O)[C@@H](C([2H])([2H])C([2H])([2H])[2H])N(C([2H])(C([2H])([2H])[2H])C([2H])([2H])[2H])c2nc(-n3ccnc3-c3cccc(F)c3)ncc21 [Example 202]", "5.00 to 6.00"),
]

Consider the compound CN1C(=O)C2(CC(F)(F)F)CCCN2c2nc(-n3ccnc3)ncc21 (centres unmarked) [Example 329] . State its measured pIC50.
4.30 to 5.00

Identify pIC50 associated with the compound CC[C@@H]1C(=O)N(C)c2cnc(-c3cn[nH]c3-c3ccc(F)cc3F)nc2N1C(C)C [Example 312]
> 6.00

----------
# target: PLK3 (Homo sapiens, UniProt Q9H4B4)
# Sequence (Q9H4B4 whole entry): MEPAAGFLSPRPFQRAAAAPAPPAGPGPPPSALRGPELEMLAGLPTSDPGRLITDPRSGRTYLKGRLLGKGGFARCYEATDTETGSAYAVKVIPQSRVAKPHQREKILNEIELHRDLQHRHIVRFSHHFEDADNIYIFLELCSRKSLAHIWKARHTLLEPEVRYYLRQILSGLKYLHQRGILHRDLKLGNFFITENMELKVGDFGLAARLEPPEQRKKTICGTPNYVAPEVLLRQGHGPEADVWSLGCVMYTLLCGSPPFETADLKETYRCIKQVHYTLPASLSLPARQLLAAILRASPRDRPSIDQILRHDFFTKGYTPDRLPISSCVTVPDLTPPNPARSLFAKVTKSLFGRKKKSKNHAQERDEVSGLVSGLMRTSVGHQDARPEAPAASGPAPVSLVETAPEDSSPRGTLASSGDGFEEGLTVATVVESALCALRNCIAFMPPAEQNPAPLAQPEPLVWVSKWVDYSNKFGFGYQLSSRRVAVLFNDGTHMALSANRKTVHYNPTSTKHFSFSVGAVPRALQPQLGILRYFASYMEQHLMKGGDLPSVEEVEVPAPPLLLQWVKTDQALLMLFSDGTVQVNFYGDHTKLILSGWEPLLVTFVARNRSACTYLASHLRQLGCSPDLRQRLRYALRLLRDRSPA
# measurementProtocol: PLK TR-FRET peptide assay, PLK3
# Format: biochemical
# experimentalContext: GST-PLK3, 15 min reaction, read-out: Plk3 IC50
measuredMetric: IC50

# compound, target, experimentalValue
records = [
    ("CC[C@@H]1C(=O)N(C)c2cnc(-n3cnc(-c4ccccc4)c3)nc2N1C1CCCC1 [Example 36]", "PLK3 (Homo sapiens, UniProt Q9H4B4)", "10 to 50 µM"),
    ("CC[C@@H]1C(=O)N(C)c2cnc(-n3ccnc3-c3ccc(C(F)(F)F)cc3)nc2N1C(C)C [Example 166]", "PLK3 (Homo sapiens, UniProt Q9H4B4)", "10 to 50 µM"),
    ("CCC12CCCCN1c1nc(-n3ccnc3-c3ccccc3)ncc1N(C)C2=O (racemic) [Example 238]", "PLK3 (Homo sapiens, UniProt Q9H4B4)", "10 to 50 µM"),
    ("CN1C(=O)[C@H]2CCCN2c2nc(-n3ccnc3)ncc21 [Example 33]", "PLK3 (Homo sapiens, UniProt Q9H4B4)", "> 50 µM"),
    ("CC[C@@]12CCCN1c1nc(-n3ccnc3-c3cnc4ccccc4c3)ncc1N(C)C2=O [Example 241]", "PLK3 (Homo sapiens, UniProt Q9H4B4)", "> 50 µM"),
    ("[2H]C([2H])([2H])N1C(=O)C(C([2H])([2H])C([2H])([2H])[2H])N(C([2H])(C([2H])([2H])[2H])C([2H])([2H])[2H])c2nc(-n3ccnc3-c3ccc(C(F)(F)F)cc3)ncc21 (stereo not shown) [Example 161]", "PLK3 (Homo sapiens, UniProt Q9H4B4)", "1 to 10 µM"),
]

The record that follows has no IC50 shown yet.
Note down IC50 recorded for CC[C@@]12CCCN1c1nc(-n3ccnc3-c3cccc(Cl)c3)ncc1N(C)C2=O [Example 236]
10 to 50 µM

----------
# target: PLK2 (Homo sapiens, UniProt Q9NYY3)
# Sequence (Q9NYY3 whole entry): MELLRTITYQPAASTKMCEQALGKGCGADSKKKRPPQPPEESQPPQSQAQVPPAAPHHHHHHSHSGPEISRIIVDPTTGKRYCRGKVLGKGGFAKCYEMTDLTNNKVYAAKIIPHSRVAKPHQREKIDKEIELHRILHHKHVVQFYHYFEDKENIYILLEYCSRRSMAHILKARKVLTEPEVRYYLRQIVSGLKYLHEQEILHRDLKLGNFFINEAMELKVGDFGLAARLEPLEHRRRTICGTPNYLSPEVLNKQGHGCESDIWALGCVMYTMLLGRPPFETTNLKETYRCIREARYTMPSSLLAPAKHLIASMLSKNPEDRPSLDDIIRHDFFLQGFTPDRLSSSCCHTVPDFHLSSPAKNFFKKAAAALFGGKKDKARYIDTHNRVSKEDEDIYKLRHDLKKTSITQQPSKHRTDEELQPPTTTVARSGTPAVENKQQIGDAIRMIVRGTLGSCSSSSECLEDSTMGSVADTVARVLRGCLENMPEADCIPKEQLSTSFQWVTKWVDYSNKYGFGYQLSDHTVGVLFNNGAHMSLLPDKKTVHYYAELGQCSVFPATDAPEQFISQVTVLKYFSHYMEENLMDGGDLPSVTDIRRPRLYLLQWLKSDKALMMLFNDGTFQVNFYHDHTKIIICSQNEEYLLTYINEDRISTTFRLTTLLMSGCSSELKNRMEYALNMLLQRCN
# measurementProtocol: PLK TR-FRET peptide assay, PLK2
# Assay type: biochemical
# experimentalContext: PLK TR-FRET peptide assay, GST-PLK2, 60 min reaction; read-out: Plk2 IC50
measuredMetric: IC50

# annotated cases, reported IC50 shown
# compound, IC50
rows = [
    ("CC[C@]12CCCCN1c1nc(-n3ccnc3)ncc1N(C)C2=O [Example 287]", "> 50000 nM"),
    ("CC[C@@]12CCCCN1c1nc(-n3ccnc3-c3cccc(F)c3F)ncc1N(C)C2=O [Example 259]", "< 1000 nM"),
    ("[2H]C([2H])([2H])N1C(=O)[C@H](C([2H])([2H])C([2H])([2H])[2H])N(C([2H])(C([2H])([2H])[2H])C([2H])([2H])[2H])c2nc(-n3ccnc3-c3ccc(F)cc3)ncc21 [Example 199]", "1000 to 10000 nM"),
]

Note IC50 for the compound shown: CCC12CCCCN1c1nc(-n3ccnc3-c3ccccc3)ncc1N(C)C2=O (racemic) [Example 238]
< 1000 nM

----------
# target: PLK1 (Homo sapiens, UniProt P53350)
# Sequence (P53350 whole entry): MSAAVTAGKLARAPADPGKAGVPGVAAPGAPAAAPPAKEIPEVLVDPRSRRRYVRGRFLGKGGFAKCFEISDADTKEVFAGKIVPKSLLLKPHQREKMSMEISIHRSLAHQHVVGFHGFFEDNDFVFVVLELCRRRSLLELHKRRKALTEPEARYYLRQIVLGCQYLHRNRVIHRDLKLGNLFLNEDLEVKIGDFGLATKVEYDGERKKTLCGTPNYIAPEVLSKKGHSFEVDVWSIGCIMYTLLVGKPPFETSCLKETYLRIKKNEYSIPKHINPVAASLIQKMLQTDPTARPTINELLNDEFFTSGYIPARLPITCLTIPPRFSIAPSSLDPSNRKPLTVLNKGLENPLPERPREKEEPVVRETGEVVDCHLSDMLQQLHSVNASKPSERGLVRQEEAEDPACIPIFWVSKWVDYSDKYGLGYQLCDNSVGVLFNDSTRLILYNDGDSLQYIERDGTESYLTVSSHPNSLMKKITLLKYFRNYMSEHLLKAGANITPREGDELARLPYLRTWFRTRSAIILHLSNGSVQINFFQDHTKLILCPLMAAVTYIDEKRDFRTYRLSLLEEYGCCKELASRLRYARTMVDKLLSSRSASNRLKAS
# measurementProtocol: PLK TR-FRET peptide assay, PLK1
# Type: biochemical
# experimentalContext: GST-PLK1, 60 min reaction
pIC50: −log10 of the molar value.
Overview of reported pIC50 across a group of compounds:

Use the examples below as a reference point.
# structure, pIC50
records = [
    ("CC[C@@H]1C(=O)N(C)c2cnc(-c3cccc(OCc4ccccc4)c3)nc2N1C1CCCC1", "< 4.30"),
    ("CC[C@@]12CCCN1c1nc(-n3ccnc3-c3cccc(Br)c3)ncc1N(C)C2=O", "5.00 to 6.00"),
    ("CC[C@@H]1C(=O)N(C)c2cnc(-n3ccnc3-c3ccc(C#N)cc3)nc2N1C(C)C", "4.30 to 5.00"),
]

We next turn to a different compound, shown below.
Give recorded pIC50. CC[C@@H]1C(=O)N(C)c2cnc(N3CCN(c4cnccn4)CC3)nc2N1C1CCCC1
5.00 to 6.00

----------
# reported IC50; entries follow
# target: PLK3 (Homo sapiens, UniProt Q9H4B4)
# measurementProtocol: PLK TR-FRET peptide assay, PLK3
# Format: biochemical
# experimentalContext: GST-PLK3, 15 min reaction, read-out: Plk3 IC50

Solved cases (10 shown):
# compound, measuredMetric, experimentalValue
rows = [
    ("CC[C@@H]1C(=O)N(C)c2cnc(-n3ccnc3-c3ccc(F)c(F)c3)nc2N1C1CCOC1 (stereo partly shown)", "IC50", "10 to 50 µM"),
    ("CC[C@@]12CCCN1c1nc(-n3ncnc3-c3cccc4ncccc34)ncc1N(C)C2=O", "IC50", "> 50 µM"),
    ("CC[C@@H]1C(=O)N(C)c2cnc(-n3nccc3-c3ccccc3)nc2N1C1CCC1", "IC50", "1 to 10 µM"),
    ("CC[C@@H]1C(=O)N(C)c2cnc(-c3cn[nH]c3-c3cscn3)nc2N1C(C)C", "IC50", "1 to 10 µM"),
    ("CC[C@@]12CCCN1c1nc(-n3ccnc3-c3cc(Cl)cc(Cl)c3)ncc1N(C)C2=O", "IC50", "10 to 50 µM"),
    ("CC[C@@H]1C(=O)N(C)c2cnc(-n3ccnc3-c3nccc4ccccc34)nc2N1C(C)C", "IC50", "> 50 µM"),
    ("CC[C@@H]1CC[C@@]2(CC)C(=O)N(C)c3cnc(-c4cn[nH]c4-c4cscn4)nc3N12", "IC50", "1 to 10 µM"),
    ("CC[C@@H]1C(=O)N(C)c2cnc(-n3ccnc3-c3ccc(F)cc3)nc2N1C(C)C1CC1 (stereo partly shown)", "IC50", "1 to 10 µM"),
    ("CC[C@@H]1C(=O)N(C)c2cnc(-n3ncnc3-c3ccccc3)nc2N1C1CCC1", "IC50", "< 1 µM"),
    ("CC[C@@H]1C(=O)N(C)c2cnc(-n3ccnc3N3CCN(C)CC3)nc2N1C1CCCC1", "IC50", "> 50 µM"),
]

Enter IC50 (test system PLK3 (Homo sapiens, UniProt Q9H4B4)) for CC[C@@H]1C(=O)N(C)c2cnc(-c3ccncc3CNC(=O)c3ccccc3)nc2N1C1CCCC1
> 50 µM

Jot down IC50 (PLK3 (Homo sapiens, UniProt Q9H4B4)) of CC[C@@H]1C(=O)N(C)c2cnc(-c3nccnc3-c3ccc(C(F)(F)F)cc3)nc2N1C(C)C .
10 to 50 µM

Fetch value of IC50 on PLK3 (Homo sapiens, UniProt Q9H4B4) for CC[C@@H]1C(=O)N(C)c2cnc(-c3ccncc3NS(=O)(=O)c3ccccc3)nc2N1C1CCCC1 .
> 50 µM

Provide PLK3 (Homo sapiens, UniProt Q9H4B4) IC50 reading for CC[C@@H]1C(=O)N(C)c2cnc(-c3ccncc3CNS(=O)(=O)c3ccccc3)nc2N1C1CCCC1 .
10 to 50 µM

Recall the reported IC50 of CCC12CCCCCN1c1nc(-n3ncnc3-c3ccccc3)ncc1N(C)C2=O (racemic) on PLK3 (Homo sapiens, UniProt Q9H4B4) and write it down.
10 to 50 µM

State the measured IC50 (PLK3 (Homo sapiens, UniProt Q9H4B4)) of CC[C@@H]1C(=O)N(C)c2cnc(-n3ccnc3-c3cccc(Br)c3)nc2N1C(C)C
1 to 10 µM
